Each entry below lists one item and its recorded potency estimated from few doses value.
System: HSP90B1
Set-up: species or system human, MV4-11 + K-562 + COLO205 + SK-N-BE2 + OVCAR-8
Details: read-out: apparent Kd; compound concentrations:100 nM and 1000 nM (sheet 'Samples'); n = 1

MOLECULE	potency estimated from few doses
Cc1cccc(-c2nc(Nc3ccncc3)c3sccc3n2)n1 [GW869641X]	1.25 µM
Cc1cnc(Nc2ccc(F)cc2Cl)nc1-c1c[nH]c(C(=O)N[C@H](CO)c2cccc(Cl)c2)c1 [Vertex11e]	1.07 µM
COc1cc2c(Nc3ccc(NC(=O)c4ccccc4)cc3)ncnc2cc1OCCCN1CCOCC1 [GSK301329A]	1.09 µM
COC(=O)Nc1nc2cc(Oc3ccc(NC(=O)Nc4cc(C(F)(F)F)ccc4Cl)cc3)ccc2[nH]1.Cl [GW697465A]	1.22 µM

###

Each entry below lists one item and its recorded potency estimated from few doses value.
Test system: SLK
Parameters: species or system human, MV4-11 + K-562 + COLO205 + SK-N-BE2 + OVCAR-8
Conditions: read-out: apparent Kd; compound concentrations:100 nM and 1000 nM (sheet 'Samples'); n = 1
RECORDED METRIC: potency estimated from few doses (nM)

COMPOUND	MEASURED ON	RECORDED METRIC	MEASURE UNIT	NUMERIC READOUT
COc1cc(F)c(F)c(F)c1C(=O)c1cnc(NC2CCN(S(C)(=O)=O)CC2)nc1N	SLK	potency estimated from few doses	nM	471
Cn1cc(C2=C(c3c4n(c5ccccc35)CCC(CN)CC4)C(=O)NC2=O)c2ccccc21 (stereo not shown)	SLK	potency estimated from few doses	nM	2120
COc1ccc(F)cc1C(=O)c1cnc(NC2CCN(S(C)(=O)=O)CC2)nc1N	SLK	potency estimated from few doses	nM	1280
O=C(O)C(F)(F)F.O=c1[nH]ccc2nc(N[C@@H]3CCNC3)nc(Nc3cc(Cl)cc(Cl)c3)c12 [GSK2188764A]	SLK	potency estimated from few doses	nM	826

###

Tested on: MAPK14
Design: species or system human, MV4-11 + K-562 + COLO205 + SK-N-BE2 + OVCAR-8
Details: read-out: apparent Kd; compound concentrations:100 nM and 1000 nM (sheet 'Samples'); n = 1
Each entry below lists one item and its recorded potency estimated from few doses value.

COMPOUND	potency estimated from few doses / nM
Cc1cccc(-c2nc(Nc3ccncc3)c3ccccc3n2)n1 [GW855857X]	1470
Cc1cccc(-c2cc(-c3c[nH]nc3-c3ccccn3)ccn2)c1 [GW679395X]	1290
Nc1nc(-c2cccc(Cl)c2)c(-c2ccc3ncccc3n2)s1 [GW780159X]	1440
Nc1n[nH]c2ncc(-c3ccccc3)cc12	1590
Cc1ccccc1-c1cc(-c2c[nH]nc2-c2ccccn2)ccn1 [GW680061X]	993

###

System: MAP2K1
Parameters: species or system human, MV4-11 + K-562 + COLO205 + SK-N-BE2 + OVCAR-8
Details: read-out: apparent Kd; compound concentrations:100 nM and 1000 nM (sheet 'Samples'); n = 1

MOLECULE	potency estimated from few doses (nM)
NS(=O)(=O)c1ccc(Nc2ncc(-c3ccccc3)o2)cc1 [GW572399X]	1420
Nc1nc(-c2ccc3c(N)n[nH]c3c2)cc(N2CCCC(NC(=O)c3ccccc3)C2)n1 (stereo not drawn) [GSK2286775B]	1830
COc1cccc(C2=C(Nc3cccc(C(=O)O)c3)C(=O)NC2=O)c1 [SB-390770]	2350
NS(=O)(=O)c1ccc(N/N=C2\C(=O)Nc3ccc(Cl)cc32)cc1 [GW280670X]	2000
CC(C(=O)NC1CCN(c2ccnc(Nc3ccc(F)cc3)n2)C1)c1ccc(Cl)cc1 (stereo not drawn) [GSK1379713A]	2230
CCOc1cc(N2CCC(O)CC2)ccc1Nc1ncc2c(n1)N(C)c1ccccc1C(=O)N2C [XMD8-92]	1780
Fc1ccc(-c2ncn(C3CCNCC3)c2-c2ccnc(Oc3ccc4c(c3)OCO4)n2)cc1 [SB-250715]	1050
Cc1cc(Nc2nc(-c3cccc(C)n3)nc3ccccc23)ccn1 [GW872411X]	2130
O=C(Nc1n[nH]c2nc(-c3cccc(O)c3)ccc12)C1CC1 [SB-711805]	2170
CNCc1ccc(-c2cc(-c3nc(-c4ccc(S(=O)(=O)C(C)C)cc4)cnc3N)on2)cc1 [VE-822]	2120
CS(=O)(=O)Nc1ccc(-c2ccnc3[nH]ccc23)cc1 [GSK993273A]	1720
Nc1nc(-c2ccc(F)cc2)c(-c2ccc3ncccc3n2)s1 [GW785804X]	1910
O=C1NC(=O)C(c2ccc(Cl)cc2)=C1Nc1cccc(Cl)c1 [SB-317651]	1860
Cc1c(Cn2c(C)nn3c(=O)cc(N4CCOC(C)C4)nc23)cccc1C(F)(F)F (stereo not drawn) [GSK2344444A]	2250
Cc1cnc(Nc2ccc(F)cc2Cl)nc1-c1c[nH]c(C(=O)N[C@H](CO)c2cccc(Cl)c2)c1 [Vertex11e]	1350
